Data credit: ChEMBL document CHEMBL1141640

target: UniProt:P28221; assay: Binding affinity to 5HT1D receptor
Sequence (P28221 whole entry): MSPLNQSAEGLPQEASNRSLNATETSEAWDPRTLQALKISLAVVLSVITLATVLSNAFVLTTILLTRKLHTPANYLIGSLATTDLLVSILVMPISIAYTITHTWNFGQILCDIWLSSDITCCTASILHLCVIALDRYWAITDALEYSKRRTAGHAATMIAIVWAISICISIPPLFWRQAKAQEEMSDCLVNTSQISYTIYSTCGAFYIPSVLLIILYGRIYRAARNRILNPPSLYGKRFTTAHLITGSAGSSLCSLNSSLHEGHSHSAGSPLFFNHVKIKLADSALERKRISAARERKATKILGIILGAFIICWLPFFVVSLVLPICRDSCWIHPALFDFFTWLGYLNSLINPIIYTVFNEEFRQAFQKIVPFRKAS
pKi: −log10 of the molar value.
Assay Metric: pKi

molecule="CC1NC(NCC(F)F)=Nc2c(Cl)ccc(Cl)c21 (stereo not drawn)" limit_sign=< observed_value=5.00
molecule="COc1cccc2c1N=C(NCC(F)F)NC2C (stereo not drawn)" limit_sign== observed_value=6.13
molecule="COc1c(Cl)ccc2c1C(C)NC(NCC(F)F)=N2 (stereo not drawn)" limit_sign== observed_value=5.74
molecule=C[C@@H]1NC(NCC(F)F)=Nc2ccc(Cl)c(Cl)c21 limit_sign== observed_value=6.63
molecule="CC1NC(NCC(F)F)=Nc2cccc(Cl)c21 (stereo not drawn)" limit_sign== observed_value=5.86
molecule=C[C@H]1NC(NCC(F)F)=Nc2ccc(Cl)c(Cl)c21 limit_sign=< observed_value=5.00
molecule="CC(C)Oc1cccc2c1N=C(NCC(F)F)NC2C (stereo not drawn)" limit_sign== observed_value=7.09
molecule="CC1NC(NCC(F)F)=Nc2ccc(Cl)c(Cl)c21 (stereo not drawn)" limit_sign== observed_value=6.20
